Entry source: patent US20050239784A1

Assay: physchem
Details: pH 7.4, aqueous buffer, kinetic from dmso stock
I'd be grateful if you could share measured solubility for these entries.

Would you mind telling me what solubility value was observed for "CC(C)n1nc(-c2ccc(OCCN(C)S(=O)(=O)N(C)C)cc2)nc2c(=O)n(C)c(=O)nc1-2" ?
160 to 1800 µM

Would you mind telling me what solubility value was observed for "CC(C)n1nc(-c2ccc(OCCN3CCCCC3)c(Cl)c2)nc2c(=O)n(C)c(=O)nc1-2" ?
160 to 1800 µM

Would you mind telling me what solubility value was observed for "CC(C)n1nc(-c2ccc(OCCN)cc2)nc2c(=O)n(C)c(=O)nc1-2" ?
> 1800 µM

Would you mind telling me what solubility value was observed for "CC(C)n1nc(-c2ccc(CNC3CCNCC3)cc2)nc2c(=O)n(C)c(=O)nc1-2" ?
> 1800 µM

Would you mind telling me what solubility value was observed for "CC(C)n1nc(-c2ccc(OCCN3CCNCC3)c(Cl)c2)nc2c(=O)n(C)c(=O)nc1-2" ?
> 1800 µM

Would you mind telling me what solubility value was observed for "COc1cc(-c2nc3c(=O)n(C)c(=O)nc-3n(C(C)C)n2)cc(OC)c1OCCN1CCN(C)CC1" ?
> 1800 µM

Would you mind telling me what solubility value was observed for "CC(C)n1nc(-c2ccc(CNC3CCN(S(=O)(=O)N(C)C)CC3)cc2)nc2c(=O)n(C)c(=O)nc1-2" ?
> 1800 µM

Would you mind telling me what solubility value was observed for "COc1cc(-c2nc3c(=O)n(C)c(=O)nc-3n(C(C)C)n2)ccc1OCCN1CCCCC1" ?
> 1800 µM

Would you mind telling me what solubility value was observed for "CC(C)n1nc(-c2ccc(OCCCN3CCOCC3)cc2)nc2c(=O)n(C)c(=O)nc1-2" ?
> 1800 µM

Would you mind telling me what solubility value was observed for "CC(C)n1nc(-c2ccc(CN3CCN(S(N)(=O)=O)CC3)cc2)nc2c(=O)n(C)c(=O)nc1-2" ?
> 1800 µM

Would you mind telling me what solubility value was observed for "CC(C)n1nc(-c2ccc(CN(C)C3CCN(S(=O)(=O)N(C)C)CC3)cc2)nc2c(=O)n(C)c(=O)nc1-2" ?
> 1800 µM

Would you mind telling me what solubility value was observed for "CC(C)n1nc(-c2ccc(OCCNS(=O)(=O)N(C)C)cc2)nc2c(=O)n(C)c(=O)nc1-2" ?
160 to 1800 µM

Would you mind telling me what solubility value was observed for "CC(C)n1nc(-c2ccc(OCCCN3CCCCC3)cc2)nc2c(=O)n(C)c(=O)nc1-2" ?
> 1800 µM

Would you mind telling me what solubility value was observed for "CC(C)n1nc(-c2ccc(OCCN3CCN(S(=O)(=O)N(C)C)CC3)cc2)nc2c(=O)n(C)c(=O)nc1-2" ?
160 to 1800 µM

Would you mind telling me what solubility value was observed for "CC(C)n1nc(-c2ccc(OCCN3CCCCC3)cc2)nc2c(=O)n(C)c(=O)nc1-2" ?
> 1800 µM

Would you mind telling me what solubility value was observed for "COc1cc(-c2nc3c(=O)n(C)c(=O)nc-3n(C(C)C)n2)cc(OC)c1OCCN1CCCCC1" ?
> 1800 µM

Would you mind telling me what solubility value was observed for "CC(C)n1nc(-c2ccc(CN(C)CCO)cc2)nc2c(=O)n(C)c(=O)nc1-2" ?
> 1800 µM

Would you mind telling me what solubility value was observed for "COc1cc(-c2nc3c(=O)n(C)c(=O)nc-3n(C(C)C)n2)cc(OC)c1OCCN(C)C1CCNCC1" ?
> 1800 µM

Would you mind telling me what solubility value was observed for "CC(C)n1nc(-c2ccc(OCCN3CCN(C(=O)OC(C)(C)C)CC3)cc2)nc2c(=O)n(C)c(=O)nc1-2" ?
160 to 1800 µM

Would you mind telling me what solubility value was observed for "CC(C)n1nc(-c2ccc(CN3CCN(S(=O)(=O)N(C)C)CC3)cc2)nc2c(=O)n(C)c(=O)nc1-2" ?
160 to 1800 µM

Would you mind telling me what solubility value was observed for "CC(C)n1nc(-c2ccc(CNCCc3cccnc3)cc2)nc2c(=O)n(C)c(=O)nc1-2" ?
> 1800 µM

Would you mind telling me what solubility value was observed for "COc1cc(-c2nc3c(=O)n(C)c(=O)nc-3n(C(C)C)n2)cc(OC)c1OCCN1CCN(S(N)(=O)=O)CC1" ?
> 1800 µM

Would you mind telling me what solubility value was observed for "CC(C)n1nc(-c2ccc(OCCN3CCOCC3)c(Cl)c2)nc2c(=O)n(C)c(=O)nc1-2" ?
160 to 1800 µM

Would you mind telling me what solubility value was observed for "COCCNCc1ccc(-c2nc3c(=O)n(C)c(=O)nc-3n(C(C)C)n2)cc1" ?
> 1800 µM

Would you mind telling me what solubility value was observed for "Cn1c(=O)nc2n(C3CCCC3)nc(-c3ccc(CN4CCNCC4)cc3)nc-2c1=O" ?
> 1800 µM

Would you mind telling me what solubility value was observed for "CC(C)n1nc(-c2ccc(OS(=O)(=O)N(C)C)cc2)nc2c(=O)n(C)c(=O)nc1-2" ?
160 to 1800 µM

Would you mind telling me what solubility value was observed for "CC(C)n1nc(-c2ccc(OCCN3CCN(C)CC3)cc2)nc2c(=O)n(C)c(=O)nc1-2" ?
> 1800 µM

Would you mind telling me what solubility value was observed for "COc1cc(-c2nc3c(=O)n(C)c(=O)nc-3n(C(C)C)n2)cc(OC)c1OS(=O)(=O)N(C)C" ?
160 to 1800 µM

Would you mind telling me what solubility value was observed for "COc1cc(-c2nc3c(=O)n(C)c(=O)nc-3n(C(C)C)n2)cc(OC)c1OCCN1CCN(C(=O)OC(C)(C)C)CC1" ?
> 1800 µM

Would you mind telling me what solubility value was observed for "CC(C)n1nc(-c2ccc(OCCN3CCNCC3)cc2)nc2c(=O)n(C)c(=O)nc1-2" ?
> 1800 µM
